Recorded values, source ChEMBL document CHEMBL1131655.

# subject.of.test: Adenosine receptor A1 (Homo sapiens) (UniProt P30542)
# Sequence (P30542 whole entry): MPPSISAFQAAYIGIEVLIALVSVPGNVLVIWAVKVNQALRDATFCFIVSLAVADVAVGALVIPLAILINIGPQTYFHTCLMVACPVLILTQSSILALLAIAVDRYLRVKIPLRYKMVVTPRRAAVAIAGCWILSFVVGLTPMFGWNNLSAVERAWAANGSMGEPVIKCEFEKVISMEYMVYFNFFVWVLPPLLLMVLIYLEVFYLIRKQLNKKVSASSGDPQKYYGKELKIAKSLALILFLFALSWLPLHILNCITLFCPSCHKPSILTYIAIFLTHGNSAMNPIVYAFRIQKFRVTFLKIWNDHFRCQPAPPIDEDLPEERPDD
# assay.notes: Percentage extracellular acidification rate was evaluated against human adenosine A1 receptor expressed in CHO-K1 cells
# Type: functional, cell-based
property: ECAR

compound	subject.of.test	property	obs.value
OC[C@@H]1OC(n2cnc3c2N=CN2C[C@@H](c4ccccc4)N=C32)[C@@H](O)[C@H]1O (some centres undefined)	Adenosine receptor A1 (Homo sapiens) (UniProt P30542)	ECAR	113%
NC1=Nc2c(ncn2C2O[C@@H](CO)[C@H](O)[C@@H]2O)C2=N[C@@H](c3ccccc3)CN12 (some centres undefined)	Adenosine receptor A1 (Homo sapiens) (UniProt P30542)	ECAR	117%
OC[C@@H]1OC(n2cnc3c2N=CN2C[C@H](c4ccccc4)N=C32)[C@@H](O)[C@H]1O (some centres undefined)	Adenosine receptor A1 (Homo sapiens) (UniProt P30542)	ECAR	106%
NC1=Nc2c(ncn2C2O[C@@H](CO)[C@H](O)[C@@H]2O)C2=N[C@H](c3ccccc3)CN12 (some centres undefined)	Adenosine receptor A1 (Homo sapiens) (UniProt P30542)	ECAR	122%
